# Tested on: RPMI-8226 leukemia
# assay.protocol: NCI-60 one-dose screen, 48 h (100 = growth as untreated, 0 = no growth, -100 = all killed)
# cond: 10 µM unless noted
About 83,000 compounds went through this panel and 20% of them were active in at least one assay; those are over-represented in the sample as a whole.
Decision: growth >= 90% yields TRUE, all other cases yield FALSE.

# count of solved cases: 6
- CCS(=O)(=O)OCCO[C@H]1Cc2cc3ccc(=O)oc3cc2OC1(C)C: TRUE
- O=C(O)c1ccc(-c2nn(-c3ccc(C(=O)O)cc3)cc2CNc2ccc(Br)cc2)cc1: TRUE
- COc1cc(CCNc2cnc3cc(N)cc(N)c3n2)cc(OC)c1: FALSE
- CCc1ccc(C(=Nc2ccc(N(C)C(=O)CN3CCN(C)CC3)cc2)c2c(O)[nH]c3ccc(C(=O)OC)cc23)cc1: FALSE
- COc1ccc(C2=C/C(=C\c3ccc(Cl)cc3)C(=O)NN2C(=S)NN)cc1: FALSE
- Cc1nc(NC(=S)Nc2ccc(F)cc2)sc1C(=O)NNC(=S)Nc1ccc(F)cc1: FALSE

Here is the next item to consider.
query: Evaluate CC(=O)NNC(=O)c1sc(NC(C)=O)nc1C : growth at minimum 90%?
result: TRUE

###

# Tested on: UACC-62 melanoma
# assay.protocol: NCI-60 one-dose screen, 48 h (100 = growth as untreated, 0 = no growth, -100 = all killed)
# cond: 10 µM unless noted
This is part of a sample that, as a whole, favours compounds with a hit. Of some 83,000 tested, about 20% had one in any assay. The source made the active and inactive calls. How the source made its calls: active means growth percent below 10; inactive means the rest.
parameter.measured: growth

• CCC1(CC)C(OC)NC(Br)=C(C#N)C1(C#N)C(N)=O (stereo unspecified) = 99.5% (inactive)
• COc1ccc2c(c1)/C(=C/c1c(-c3cc(OC)c(OC)c(OC)c3)nc3sccn13)C(=O)N2 = 92.5% (inactive)
• O=C1C(Cl)=C(SC2=NCCN2)C(=O)c2ccccc21 = 74.3% (inactive)
• CCS(=O)(=O)N[C@@H]1O[C@H](COC(C)=O)C(OC(C)=O)[C@H](OC(C)=O)C1OC(C)=O (stereo partly specified) = 110% (inactive)
• CC(=O)Nc1nc(C)c(C(=O)NN)s1 = 91.9% (inactive)

query: Fill blank: measured growth of the compound NC(N)=N/N=C/c1cccc(Br)c1 is ____.
result: 107% (inactive)

query: Request the reported growth associated with COc1cc(-c2cc3cnccc3c3nc(N)c4ccncc4c23)cc(OC)c1OC
result: 41.6% (inactive)

query: Give its growth value. Item: [N-]=[N+]=Nc1ncc(-c2ccc(C(F)(F)F)cc2)c(NC2CCCCCC2)n1
result: 25.5% [100 µM] (inactive)

query: Quick one: growth of C=CCNCCC#N ?
result: 109% (inactive)

query: Reported growth, compound COc1ccc(C2=C/C(=C\c3ccc(Cl)cc3)C(=O)NN2C(=S)NN)cc1 : ____
result: 86.6% (inactive)

query: Quick one: growth of CCCCCCCCCCCCOC(=N)N(C)C ?
result: 93.9% (inactive)

###

// reported growth for each item listed
# System: LOX IMVI melanoma
# assay.protocol: NCI-60 one-dose screen, 48 h (100 = growth as untreated, 0 = no growth, -100 = all killed)
# cond: 10 µM unless noted
The panel holds about 83,000 compounds, 20% with a hit somewhere; the sample as a whole holds those more often.
Write the answer as a number in %, unit excluded.

Below, each entry is followed by its recorded growth result.
- CC(C)OCC1CO1 (stereo not given): 113
- Nc1nc2c(c3cnccc13)C(c1cccc(Br)c1)Cc1cnccc1-2 (stereo not given): 8.43
- COc1cc2c(cc1OC)C(Cc1cc(OC)c(OC)cc1[N+](=O)[O-])=NCC2: 75.1
- CC(=O)NNC(=O)c1sc(NC(C)=O)nc1C: 94.4
- COc1ccc(C(=O)N2N=C(c3ccc(Br)cc3)CC2c2cn(-c3ccccc3)nc2-c2ccccc2)cc1 (stereo not given): 44.5

query: Reported growth for C=C(C)[C@@H]1CC[C@]2(COC(=O)c3ccccc3C(=O)O)CC[C@]3(C)[C@H](CC[C@@H]4[C@@]5(C)CCCNC(C)(C)[C@@H]5CC[C@]43C)[C@@H]12 : what is it?
result: 48.3

query: Report growth for c1ccc(Nc2ncc3c(n2)-c2cccn2CC3)cc1 please.
result: 92.4

query: # lookup: growth of COc1ccc2c(c1)/C(=C1/S/C(=N/c3nnc(C)s3)NC1=O)C(=O)N2Cc1ccc(Br)cc1
result: 32.1

query: // growth lookup, key: C=C(C)C(C(=O)OCC)(C(=O)OCC)C(C)C
result: 102

query: Name the reported growth value associated with the molecule O=S(=O)(O)CCI
result: 97.8

From: PubChem BioAssay (NCI)
